Recorded values, source patent US8343968B2.

Listing: pIC50 of selected molecules
# target.or.system: human recombinant renin (Homo sapiens)
# Sequence (P00797 67-406): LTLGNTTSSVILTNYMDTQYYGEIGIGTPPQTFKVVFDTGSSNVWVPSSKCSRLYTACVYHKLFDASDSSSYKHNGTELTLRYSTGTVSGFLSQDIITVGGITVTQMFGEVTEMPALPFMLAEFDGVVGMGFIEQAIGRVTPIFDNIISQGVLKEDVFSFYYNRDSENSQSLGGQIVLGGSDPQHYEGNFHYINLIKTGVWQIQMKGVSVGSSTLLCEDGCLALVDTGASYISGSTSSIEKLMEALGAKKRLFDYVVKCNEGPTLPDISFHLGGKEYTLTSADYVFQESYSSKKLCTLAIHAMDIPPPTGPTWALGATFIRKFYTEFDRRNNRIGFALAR
# procedure.summary: Inhibition of human recombinant renin (buffer), enzymatic in vitro assay with Ang I EIA
# conditions.used: assay buffer PBS, 1 mM EDTA, 0.1% BSA; human recombinant renin 40 pM
# pIC50 is unitless: minus log10 of the molar concentration; print number only

For orientation, consider the following solved cases.
compound.structure.string	pIC50
COCCCc1cc(CN(C(=O)[C@H]2CNCC[C@@H]2c2ccc(OCCOc3c(Cl)cc(C)cc3Cl)cc2)C2CC2)cc(OC[C@@H]2C[C@H]2C(=O)O)c1	10.57
CCOC(=O)[C@@H]1C[C@H]1COc1cc(CCCOC)cc(CN(C(=O)[C@H]2CNCC[C@@H]2c2ccc(OCCOc3c(Cl)cc(C)cc3Cl)cc2)C2CC2)c1	10.19
COCCCc1cc(CN(C(=O)[C@H]2CNCC[C@@H]2c2ccc(OCCOc3c(Cl)cc(C)cc3Cl)cc2)C2CC2)cc(OCC2(Cc3nn[nH]n3)CC2)c1	10.52

Alright, here's another molecule for you.
Prompt line: Supply measured pIC50 of COCCCc1cc(CN(C(=O)[C@H]2CNCC[C@@H]2c2ccc(OCCOc3c(Cl)cc(C)cc3Cl)cc2)C2CC2)cc(OCC2(CC(=O)O)CC2)c1 in your reply.
Response line: 10.44
